- EXPERIMENT: Cytotoxicity against CHO cells measured after 48 hrs by MTT assay
- Type: toxicity, cell-based, Cricetulus griseus
- MEASUREMENT PARAMETERS: Chinese hamster
METRIC NAME: IC50 at 48 h
Returns: string containing the numeric result and its unit.

Would you mind telling me what IC50 at 48 h value was observed for COc1ccc(-c2ccc3nccc(N[C@@H]4CCNC4)c3n2)cn1 ?
17 µM

---

- EXPERIMENT: physchem
METRIC NAME: solubility thermodynamic (µM)
Give just the number in µM; leave the unit off.

Can you look up the measured solubility thermodynamic of COc1ccc(-c2ccc3nccc(N[C@@H]4CCNC4)c3n2)cn1 for me?
190

Each recorded value in this set is attributed to ChEMBL document CHEMBL5523726.
